- System tested: human recombinant MC4R (CHO-K1/Gα15 stable cell line, GenScript) (human, UniProt P32245 1-332)
- Sequence (P32245 whole entry): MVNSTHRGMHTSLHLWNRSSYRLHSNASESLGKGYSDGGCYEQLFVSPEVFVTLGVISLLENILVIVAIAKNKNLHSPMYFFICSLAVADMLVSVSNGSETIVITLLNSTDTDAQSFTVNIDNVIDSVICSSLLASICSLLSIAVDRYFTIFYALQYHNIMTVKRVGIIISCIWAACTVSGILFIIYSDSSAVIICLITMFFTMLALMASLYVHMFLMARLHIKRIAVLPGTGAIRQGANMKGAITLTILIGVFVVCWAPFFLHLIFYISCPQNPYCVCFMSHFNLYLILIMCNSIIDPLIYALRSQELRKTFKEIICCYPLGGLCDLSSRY
- Protocol text: cell-based or functional assay
Positions of bridges follow the written chain, without caps; N, C: chain ends. Non-standard residues stand in square brackets, D forms with d. *: point of attachment. MoPA = (3-methoxyphenyl)acetic acid (N-terminal cap), COc1cccc(CC(=O)*)c1; Lys(N3) = [N-]=[N+]=NCCCC[C@H](N)C(=O)O; Orn(N3) = [N-]=[N+]=NCCC[C@H](N)C(=O)O; Hpra = C#CCC[C@H](N)C(=O)O; Nle = CCCC[C@H](N)C(=O)O; Pra = C#CC[C@H](N)C(=O)O
Parameter: MC4R IC50 (nM)

(I) Ac-[Nle][Orn(N3)]H[dF]RW[Hpra]K-NH2 (triazole 2-7; not fully specified; printed as Ac-Nle-[Orn(N3)-His-DPhe-Arg-Trp-Hpra]-Lys-NH2) [KR-068]
(II) {MoPA-MoPA}-[Nle][Lys(N3)]H[dF]RW[Pra]K-NH2 (triazole 2-7; not fully specified; printed as MoPA-MoPA-Nle-[Lys(N3)-His-DPhe-Arg-Trp-Pra]-Lys-NH2) [KR-063]
*Q* # returns the entry with the larger MC4R IC50; inputs I and II Indicate your choice by writing its label.
*A* II
